Biological target: Alpha-2A adrenergic receptor (Mus musculus)
Sequence (Q01338 whole entry): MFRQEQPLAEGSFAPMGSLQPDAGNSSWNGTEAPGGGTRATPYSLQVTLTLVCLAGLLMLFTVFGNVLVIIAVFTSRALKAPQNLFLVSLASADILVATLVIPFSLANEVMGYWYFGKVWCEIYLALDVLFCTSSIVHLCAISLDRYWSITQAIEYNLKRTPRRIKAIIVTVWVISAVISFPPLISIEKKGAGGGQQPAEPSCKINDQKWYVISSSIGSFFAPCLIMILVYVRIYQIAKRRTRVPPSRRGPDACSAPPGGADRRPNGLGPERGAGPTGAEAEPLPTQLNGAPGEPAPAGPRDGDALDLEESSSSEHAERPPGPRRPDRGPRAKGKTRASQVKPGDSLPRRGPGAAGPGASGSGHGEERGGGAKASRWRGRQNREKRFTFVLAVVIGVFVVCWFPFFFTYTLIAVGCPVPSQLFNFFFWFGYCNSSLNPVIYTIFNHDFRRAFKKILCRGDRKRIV
measured.quantity: Ki
Answer with the value and then the unit.

I'd like to know its Ki. The compound in question is NC[C@H](O)c1ccc(O)c(O)c1 [NOREPINEPHRINE] 5.8 µM
